Origin of measurements: patent US20250195513A1

MEASURED ON: IRAK4 (Homo sapiens, UniProt Q9NWZ3)
Construct: endogenous in cells; host or cells: Karpas299
Sequence (Q9NWZ3 whole entry): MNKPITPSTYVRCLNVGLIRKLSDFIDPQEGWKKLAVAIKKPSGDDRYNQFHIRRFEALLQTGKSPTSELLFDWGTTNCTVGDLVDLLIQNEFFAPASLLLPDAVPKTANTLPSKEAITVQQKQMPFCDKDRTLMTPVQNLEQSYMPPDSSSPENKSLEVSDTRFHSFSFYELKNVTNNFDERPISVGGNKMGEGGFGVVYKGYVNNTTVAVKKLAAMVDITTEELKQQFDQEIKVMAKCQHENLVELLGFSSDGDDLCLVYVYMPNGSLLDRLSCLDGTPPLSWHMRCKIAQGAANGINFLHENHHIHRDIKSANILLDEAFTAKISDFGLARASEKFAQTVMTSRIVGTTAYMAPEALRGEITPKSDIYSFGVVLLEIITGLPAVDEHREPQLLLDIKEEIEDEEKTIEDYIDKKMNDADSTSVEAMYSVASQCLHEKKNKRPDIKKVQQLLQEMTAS
ASSAY: IRAK4 Degradation Assay (Karpas299, HTRF/TR-FRET)
Type: cell-based
RUN CONDITIONS: Karpas-299 cells, 24 h treatment; read-out: IRAK4 in Karpas-299 (24 h) DC50
Exercise: for every item that follows, state its recorded DC50.
One number for each entry, in nM.

Consider the following illustrative entries.
{"MOLECULE": "COc1cc2nn([C@H]3CC[C@H](N4CCN(CCc5cc(F)c([C@H]6CCC(=O)NC6=O)c(F)c5)CC4)CC3)cc2cc1NC(=O)c1cccc(C(F)(F)F)n1", "MEASURED ON": "IRAK4 (Homo sapiens, UniProt Q9NWZ3)", "DC50 [nM]": 4.2}
{"MOLECULE": "CC(C)(O)c1cc2nn([C@H]3CC[C@H](N4CCN(CCc5cc(F)c([C@H]6CCC(=O)NC6=O)c(F)c5)C[C@@H]4CC#N)CC3)cc2cc1NC(=O)c1ccc2cc(C#N)cnn12", "MEASURED ON": "IRAK4 (Homo sapiens, UniProt Q9NWZ3)", "DC50 [nM]": 1}
{"MOLECULE": "O=C1CCN(c2c(F)cc(N3CC[C@H](C(=O)N4CCN([C@H]5CC[C@H](n6cc(NC(=O)c7cnn(-c8ccnc(NCC9CC9)c8)n7)c(C(F)F)n6)CC5)CC4)C3)cc2F)C(=O)N1", "MEASURED ON": "IRAK4 (Homo sapiens, UniProt Q9NWZ3)", "DC50 [nM]": 15}
{"MOLECULE": "COC[C@H]1CN([C@H]2CC[C@H](n3cc4cc(NC(=O)c5ccc6cc(C#N)cnn56)c(C(C)(C)O)cc4n3)CC2)CCN1C1CCN(c2cc(F)c([C@H]3CCC(=O)NC3=O)c(F)c2)CC1", "MEASURED ON": "IRAK4 (Homo sapiens, UniProt Q9NWZ3)", "DC50 [nM]": 0.8}

Hi there! I need DC50 for each item below, if you can.
1. O=C1CC[C@H](c2c(F)cc(N3CC[C@@H](C(=O)N4CCN([C@H]5CC[C@H](n6cc7cc(NC(=O)c8cccc(C(F)(F)F)n8)c(C(=O)NC8CC8)cc7n6)CC5)CC4)C3)cc2F)C(=O)N1
2. CC(C)(O)c1cc2nn([C@H]3CC[C@H](N4CCN(C5CN(c6cc(F)c([C@H]7CCC(=O)NC7=O)c(F)c6)C5)CC4)CC3)cc2cc1NC(=O)c1coc2cccnc12

Result:
1. 1.9
2. 0.8
